Recorded AC50 for the following compounds
target: Gamma-aminobutyric acid receptor subunit alpha-1 (Rattus norvegicus); format: functional; further: assay procedure not described here
Sequence (P62813 whole entry): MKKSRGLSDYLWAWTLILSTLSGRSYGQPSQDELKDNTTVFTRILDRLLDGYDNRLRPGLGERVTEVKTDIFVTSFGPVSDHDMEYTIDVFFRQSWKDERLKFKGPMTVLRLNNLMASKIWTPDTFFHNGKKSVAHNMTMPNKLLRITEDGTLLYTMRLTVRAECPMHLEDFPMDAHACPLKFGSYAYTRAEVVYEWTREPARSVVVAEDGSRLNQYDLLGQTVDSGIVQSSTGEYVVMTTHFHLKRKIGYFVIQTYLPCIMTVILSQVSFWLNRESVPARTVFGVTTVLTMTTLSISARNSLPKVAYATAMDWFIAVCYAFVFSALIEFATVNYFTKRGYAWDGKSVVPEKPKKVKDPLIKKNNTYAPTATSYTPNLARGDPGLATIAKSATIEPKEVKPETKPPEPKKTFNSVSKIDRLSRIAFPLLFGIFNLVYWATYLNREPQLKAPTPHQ

Before answering, review these 3 worked examples.
CCc1nn(CCCN2CCN(c3cccc(Cl)c3)CC2)c(=O)n1CCOc1ccccc1 [NEFAZODONE] = > 10 µM
C#C[C@]1(O)CC[C@H]2[C@@H]3CCc4cc(O)ccc4[C@H]3CC[C@@]21C [ETHINYL ESTRADIOL] = > 10 µM
N[C@@H](C(=O)N[C@@H]1C(=O)N2C(C(=O)O)=C(Cl)CS[C@H]12)c1ccccc1 [CEFACLOR ANHYDROUS] = > 30 µM

Next compound, please.
**Q:** Could you share which AC50 value was measured for CN1CCCC(n2nc(Cc3ccc(Cl)cc3)c3ccccc3c2=O)CC1 (centres undefined) [AZELASTINE] ?
**A:** > 30 µM

* * *

Dear all, this message contains AC50 results, target or system 5-hydroxytryptamine receptor 2B (Homo sapiens). Further: assay procedure not described here.
Provide the reading as a plain figure in µM.

Before answering, review these 4 worked examples.
O=C1NCCN1CCN1CCC(c2cn(-c3ccc(F)cc3)c3ccc(Cl)cc23)CC1 [SERTINDOLE] = 0.012
Cc1cc(-c2ccccc2)nnc1NCCN1CCOCC1 [MINAPRINE] = 1.4
O=C(Nc1ccccc1)OCC(CN1CCCCC1)OC(=O)Nc1ccccc1 (stereo not drawn) [DIPERODON] = 1.96
NS(=O)(=O)c1cc2c(cc1Cl)NCNS2(=O)=O [HYDROCHLOROTHIAZIDE] = 6.91

Next molecule, please.
**Q:** Could you share which AC50 value was measured for CCN(CC)CCNC(=O)c1cc(Cl)c(N)cc1OC [METOCLOPRAMIDE] ?
**A:** 0.314

* * *

Dear all, this message contains AC50 results, target or system Adenosine receptor A3 (Homo sapiens, UniProt P0DMS8). Further: assay procedure not described here.

**Q:** Could you share which AC50 value was measured for CC(C)C(=O)Nc1ccc([N+](=O)[O-])c(C(F)(F)F)c1 [FLUTAMIDE] ?
**A:** 20.3 µM

**Q:** Same for O=C1NCC2(CCN(CCc3ccccc3)CC2)O1 [FENSPIRIDE]
**A:** > 30 µM

**Q:** Same for Nc1ccc(C(=O)O)cc1
**A:** > 30 µM

**Q:** Same for NS(=O)(=O)c1cc2c(cc1Cl)NC(C1CC3C=CC1C3)NS2(=O)=O (configuration not stated) [CYCLOTHIAZIDE]
**A:** > 30 µM

**Q:** Same for COc1ccc(-c2cc(=O)c3c(O)cc(O[C@@H]4O[C@H](CO[C@@H]5O[C@@H](C)[C@H](O)[C@@H](O)[C@H]5O)[C@@H](O)[C@H](O)[C@H]4O)cc3o2)cc1O
**A:** > 30 µM

* * *

Target: UniProt:P08172
Sequence (P08172 whole entry): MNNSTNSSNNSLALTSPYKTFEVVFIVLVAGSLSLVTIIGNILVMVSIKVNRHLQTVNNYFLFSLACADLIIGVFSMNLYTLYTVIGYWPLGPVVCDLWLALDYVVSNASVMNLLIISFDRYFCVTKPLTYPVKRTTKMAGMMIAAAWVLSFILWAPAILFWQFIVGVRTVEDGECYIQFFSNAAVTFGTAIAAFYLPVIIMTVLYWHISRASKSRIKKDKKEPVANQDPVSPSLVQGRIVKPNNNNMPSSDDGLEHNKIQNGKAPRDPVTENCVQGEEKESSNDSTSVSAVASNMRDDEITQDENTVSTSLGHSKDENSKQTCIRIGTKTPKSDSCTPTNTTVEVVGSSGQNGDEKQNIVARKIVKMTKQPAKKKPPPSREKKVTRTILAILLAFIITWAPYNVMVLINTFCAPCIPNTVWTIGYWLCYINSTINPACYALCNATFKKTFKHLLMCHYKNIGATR
Format: functional, cell-based
OBSERVATION_TYPE: AC50

CCCS(=O)(=O)Nc1ccc(F)c(C(=O)c2c[nH]c3ncc(-c4ccc(Cl)cc4)cc23)c1F = > 30 µM
CN1C(=O)CC(c2ccccc2)C1=O (stereo not drawn) [PHENSUXIMIDE] = > 10 µM
CC(=O)NS(=O)(=O)c1ccc(N)cc1 [SULFACETAMIDE] = > 10 µM
CC(=O)OCC(=O)[C@@]12OC3(CCCC3)O[C@@H]1C[C@H]1[C@@H]3CCC4=CC(=O)C=C[C@]4(C)[C@@]3(F)[C@@H](O)C[C@@]12C [AMCINONIDE] = > 10 µM
CN1CCc2cccc3c2[C@H]1Cc1ccc(O)c(O)c1-3 = > 10 µM
COc1c(N2CCNC(C)C2)c(F)cc2c(=O)c(C(=O)O)cn(C3CC3)c12 (stereo not drawn) = > 10 µM

**Q:** Could you share which AC50 value was measured for COC(=O)N[C@H](C(=O)N1CCC[C@H]1c1nc(-c2ccc(-c3ccc(-c4c[nH]c([C@@H]5CCCN5C(=O)[C@@H](NC(=O)OC)C(C)C)n4)cc3)cc2)c[nH]1)C(C)C ?
**A:** > 30 µM

**Q:** Same for CN1CC[C@]23CCCC[C@H]2[C@H]1Cc1ccc(O)cc13
**A:** > 10 µM

The reported measurements were obtained from ChEMBL document CHEMBL5291721.
